assay: Retention time of the compound by HPLC analysis; type: physicochemical
measurement_label: Retention_time (min)
Field format: number, assumed min, no unit text.

[[record]]
smiles_code = "Cc1cc(C)cc(NC(=O)CN2CCC(Nc3nccc(Oc4c(C)cc(C#N)cc4C)n3)CC2)c1"
measurement_label = "Retention_time"
result = 12.18

[[record]]
smiles_code = "Cc1cc(C#N)cc(C)c1Oc1ccnc(NC2CCN(CC(=O)Nc3ccc([N+](=O)[O-])cc3)CC2)n1"
measurement_label = "Retention_time"
result = 11.13

[[record]]
smiles_code = "Cc1cc(C#N)cc(C)c1Oc1ccnc(NC2CCN(CC(=O)Nc3ccccc3)CC2)n1"
measurement_label = "Retention_time"
result = 10.9


Enquiry: Form field: reported Retention_time of `Cc1cc(C#N)cc(C)c1Oc1ccnc(NC2CCN(CC(=O)Nc3ccccc3[N+](=O)[O-])CC2)n1`
Return: 11.75

Enquiry: Another compound to check: `Cc1cc(C#N)cc(C)c1Oc1ccnc(NC2CCN(CC(=O)Nc3ccc(Cl)cc3)CC2)n1`
Return: 11.62

Enquiry: Another compound to check: `Cc1cc(C#N)cc(C)c1Oc1ccnc(NC2CCN(CC(=O)Nc3ccccc3F)CC2)n1`
Return: 11.43

Enquiry: Another compound to check: `Cc1cc(C#N)cc(C)c1Oc1ccnc(NC2CCN(CC(=O)Nc3ccc(S(N)(=O)=O)cc3)CC2)n1`
Return: 9.11

Enquiry: Another compound to check: `Cc1ccc(NC(=O)CN2CCC(Nc3nccc(Oc4c(C)cc(C#N)cc4C)n3)CC2)cc1`
Return: 11.29

Enquiry: Another compound to check: `Cc1cc(C#N)cc(C)c1Oc1ccnc(NC2CCN(CC(=O)Nc3ccc(C#N)cc3)CC2)n1`
Return: 10.72
